Target: CtBP1(WT, FL) (human, UniProt Q13363 1-440)
Experiment: ITC; VP-ITC, 25 °C, 50 mM HEPES (pH 7.2), 150 mM NaCl; CtBP in the cell (10 µM for RAI2 M1 or M2, 20 µM for the WT RAI2 constructs), RAI2 in the syringe (100 µM); mean of three independent measurements ± SD
Conditions: both partners purified
metric name: stoichiometry N
Quick one: just the number, no unit, thanks!

Some solved cases for reference:
[[record]]
binder = "SRHTVIKMGSENEALDLSMKSVPWLKAGALDLSVAAHRKSEPPPETLYD (domain or fragment, UniProt Q9Y5P3 303-362, looked up, source: E. coli BL21 DE3 LOBSTR, purified (HisTrap, TEV cleavage, Superdex 75); not shown: His6, N-terminal, cleaved) [RAI2(Δ11, 303-362)]"
metric_name = "stoichiometry N"
measured = 0.41

[[record]]
binder = "RAI2(M1, 303-362) (domain or fragment, source: E. coli BL21 DE3 LOBSTR, purified (HisTrap, TEV cleavage, Superdex 75); not shown: His6, N-terminal, cleaved) SRHTVIKMGSENEALDAAMKSVPWLKAGEVSPPIFQEDAALDLSVAAHRKSEPPPETLYD"
metric_name = "stoichiometry N"
measured = 0.78

[[record]]
binder = "RAI2(M2, 303-362) (domain or fragment, source: E. coli BL21 DE3 LOBSTR, purified (HisTrap, TEV cleavage, Superdex 75); not shown: His6, N-terminal, cleaved) SRHTVIKMGSENEALDLSMKSVPWLKAGEVSPPIFQEDAALDAAVAAHRKSEPPPETLYD"
metric_name = "stoichiometry N"
measured = 0.84

[[record]]
binder = "RAI2(WT, 303-465) (domain or fragment, this construct came from the same vector and may carry the same residues; source: E. coli BL21 DE3 LOBSTR, purified (HisTrap, TEV cleavage, Superdex 75); not shown: His6, N-terminal, cleaved) SRHTVIKMGSENEALDLSMKSVPWLKAGEVSPPIFQEDAALDLSVAAHRKSEPPPETLYDSGASVDSSGHTVMEKLPSGMEISFAPATSHEAPAMMDSHISSSDAATEMLSQPNHPSGEVKAENNIEMVGESQAAKVIVSVEDAVPTIFCGKIKGLSGVSTKN"
metric_name = "stoichiometry N"
measured = 0.32


Field: next binder
GET /value?item= RAI2(WT, 303-362) (domain or fragment, this construct came from the same vector (pETGB1a, TEV site) and may carry the same residues; source: E. coli BL21 DE3 LOBSTR, purified (HisTrap, TEV cleavage, Superdex 75); not shown: His6, N-terminal, cleaved) SRHTVIKMGSENEALDLSMKSVPWLKAGEVSPPIFQEDAALDLSVAAHRKSEPPPETLYD &field=stoichiometry N returns 0.42

Entry source: paper PMC11187106
